- testedSystem: MMP-9 (Homo sapiens)
- Construct: from tissue; host or cells: human polymorphonuclear leukocytes (PMN) from whole blood (New York Blood Center), PMA-stimulated supernatant
- experimentNotes: Thiopeptilide MMP-9 Inhibition Assay
- Type: biochemical
- assaySetup: at 5 μM; read-out: MMP-9: Thiopep. % inhibition
Output Yes for inhibition at 5 µM not less than 20%; output No otherwise.

Determine whether this molecule has inhibition at 5 µM no lower than 20%: CC(C)CC(CC(=O)O)C(=O)c1ccc(-c2ccc(Cl)cc2)cc1 (single isomer, unassigned) [Example 5]
No

Determine whether this molecule has inhibition at 5 µM no lower than 20%: O=C(O)CCC1(C(=O)c2ccc(-c3ccc(Cl)cc3)cc2)CCCC1 [Example 340]
Yes

Determine whether this molecule has inhibition at 5 µM no lower than 20%: Cc1nc(-c2ccc(C(=O)CC(CC(C)C)C(=O)O)cc2)co1 (centres unmarked) [Example 347]
No

Determine whether this molecule has inhibition at 5 µM no lower than 20%: O=C(CC(CCCc1ccccc1)C(=O)O)c1ccc(-c2ccc(F)c(Cl)c2)cc1 (centres unmarked) [Example 74]
Yes

Determine whether this molecule has inhibition at 5 µM no lower than 20%: CCCCC(CC(=O)c1ccc(-c2ccc(Cl)cc2)cc1)C(=O)O (centres unmarked) [Example 120]
Yes

Determine whether this molecule has inhibition at 5 µM no lower than 20%: CC(C)CC(CC(=O)c1ccc(-c2ccc(F)cc2F)cc1)C(=O)O (centres unmarked) [Example 20]
Yes

Determine whether this molecule has inhibition at 5 µM no lower than 20%: O=C(C[C@@H](CSc1ccccc1)C(=O)O)c1ccc(-c2ccc(Cl)cc2)cc1 [Example 198]
Yes

Determine whether this molecule has inhibition at 5 µM no lower than 20%: O=C(CC(CCCc1ccccc1)C(=O)O)c1ccc(-c2ccc(-c3nnn[nH]3)cc2)cc1 (centres unmarked) [Example 57]
Yes

----------
- testedSystem: MMP-2 (Homo sapiens, UniProt P08253)
- Sequence (P08253 110-660): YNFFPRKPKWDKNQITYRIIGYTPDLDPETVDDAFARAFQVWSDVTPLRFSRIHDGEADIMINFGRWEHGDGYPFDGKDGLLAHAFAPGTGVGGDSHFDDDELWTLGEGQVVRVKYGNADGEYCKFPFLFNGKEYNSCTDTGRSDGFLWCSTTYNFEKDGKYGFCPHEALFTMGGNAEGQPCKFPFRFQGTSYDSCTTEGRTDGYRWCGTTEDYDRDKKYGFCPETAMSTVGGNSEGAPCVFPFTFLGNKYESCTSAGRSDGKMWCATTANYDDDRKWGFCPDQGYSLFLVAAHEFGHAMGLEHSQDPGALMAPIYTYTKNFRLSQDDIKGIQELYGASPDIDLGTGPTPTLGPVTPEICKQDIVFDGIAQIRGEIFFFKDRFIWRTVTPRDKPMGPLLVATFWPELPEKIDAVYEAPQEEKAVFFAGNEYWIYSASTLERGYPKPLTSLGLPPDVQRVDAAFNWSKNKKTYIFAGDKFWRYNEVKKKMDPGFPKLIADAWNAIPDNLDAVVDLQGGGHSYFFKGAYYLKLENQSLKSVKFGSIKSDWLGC
- experimentNotes: Automated MMP Profiling Assay, MMP-2 fluorogenic
- Type: biochemical
- assaySetup: 96-well automated, P218; read-out: MMP-2 Fluorogenic IC50 (profiling)
outcomeMeasure: pIC50
A value of pIC50 is the negative decimal logarithm of a concentration given in moles per litre.

For record O=C(CC(CCNC(=O)c1ccccc1C(=O)O)C(=O)O)c1ccc(-c2ccc(Cl)cc2)cc1 (centres unmarked) [Example 279] the listed pIC50 is 7.17

For record Cc1ccc(C(=O)OC[C@@H]2CC[C@H](C(=O)c3ccc(-c4ccc(Cl)cc4)cc3)[C@H]2C(=O)O)cc1 (relative stereo) the listed pIC50 is 7.16

For record CCCCCOc1ccc(-c2ccc(C(=O)[C@@H]3CC[C@H](Cc4ccccc4)[C@H]3C(=O)O)cc2)cc1 the listed pIC50 is 5.36

For record COC(=O)c1ccccc1C(=O)OC[C@@H]1CC[C@H](C(=O)c2ccc(-c3ccc(Cl)cc3)cc2)[C@H]1C(=O)O (relative stereo) the listed pIC50 is 7.51

For record O=C(O)[C@H]1[C@@H](Sc2ccccc2)CC[C@@H]1C(=O)c1ccc(-c2ccc(Cl)cc2)cc1 (relative stereo) the listed pIC50 is 5.56

For record O=C(CC(CCCc1ccccc1)C(=O)O)c1ccc(-c2ccc(OCc3ccc(F)cc3)cc2)cc1 (centres unmarked) the listed pIC50 is 7.80

For record O=C(O)c1ccccc1S[C@H]1CC[C@H](C(=O)c2ccc(-c3ccc(Cl)cc3)cc2)[C@H]1C(=O)O (relative stereo) the listed pIC50 is 7.74

For record O=C(O)[C@H]1[C@H](CN2C(=O)c3cc4ccccc4cc3C2=O)CC[C@@H]1C(=O)c1ccc(-c2ccc(Cl)cc2)cc1 (relative stereo) the listed pIC50 is 8.31

For record O=C(CC(CCc1ccccc1)C(=O)O)c1ccc(-c2ccc(O)cc2)cc1 (centres unmarked) the listed pIC50 is 7.30

For record CN(C)C(=O)c1cccc(SCC(CC(=O)c2ccc(-c3ccc(Cl)cc3)cc2)C(=O)O)c1 (centres unmarked) the listed pIC50 is 7.82

For record Cc1ccccc1C(=O)OC[C@@H]1CC[C@H](C(=O)c2ccc(-c3ccc(Cl)cc3)cc2)[C@H]1C(=O)O (relative stereo) the listed pIC50 is 7.37

For record Cc1ccc2c(c1)C(=O)N(CCC(CC(=O)c1ccc(-c3ccc(Cl)cc3)cc1)C(=O)O)C2=O (centres unmarked) the listed pIC50 is 7.64

For record CC(C)(C)c1ccc2c(c1)C(=O)N(CCC(CC(=O)c1ccc(-c3ccc(Cl)cc3)cc1)C(=O)O)C2=O (centres unmarked) the listed pIC50 is 7.10

For record CCN(CC)C(=O)c1cccc(CCC(CC(=O)c2ccc(-c3ccc(OCc4ccccc4)cc3)cc2)C(=O)O)c1 (centres unmarked) the listed pIC50 is 8.52

----------
- testedSystem: MMP-9 (Homo sapiens, UniProt P14780)
- Construct: from tissue; host or cells: human polymorphonuclear leukocytes (PMN) from whole blood (New York Blood Center), PMA-stimulated supernatant
- Sequence (P14780 107-707 limits assumed): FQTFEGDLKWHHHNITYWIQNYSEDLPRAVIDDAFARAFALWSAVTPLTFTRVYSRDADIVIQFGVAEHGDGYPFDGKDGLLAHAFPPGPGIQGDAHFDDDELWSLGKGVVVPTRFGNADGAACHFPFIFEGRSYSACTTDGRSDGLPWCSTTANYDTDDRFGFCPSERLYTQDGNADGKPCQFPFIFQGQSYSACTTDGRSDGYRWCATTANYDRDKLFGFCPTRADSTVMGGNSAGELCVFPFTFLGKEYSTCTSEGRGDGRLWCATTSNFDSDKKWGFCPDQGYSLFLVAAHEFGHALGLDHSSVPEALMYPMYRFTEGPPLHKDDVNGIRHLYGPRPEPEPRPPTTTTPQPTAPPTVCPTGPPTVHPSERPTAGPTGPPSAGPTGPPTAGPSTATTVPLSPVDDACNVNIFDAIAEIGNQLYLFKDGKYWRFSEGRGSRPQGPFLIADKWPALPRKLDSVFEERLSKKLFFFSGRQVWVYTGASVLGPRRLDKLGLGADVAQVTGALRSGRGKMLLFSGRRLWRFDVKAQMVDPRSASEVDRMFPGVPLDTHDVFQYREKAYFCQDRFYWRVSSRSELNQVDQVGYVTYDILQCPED
- experimentNotes: Automated MMP Profiling Assay, MMP-9 fluorogenic
- Type: biochemical
- assaySetup: 96-well automated, P218
Kindly state pIC50 for each of the entries shown.
A value of pIC50 is the negative decimal logarithm of a concentration given in moles per litre.

Param item: Cc1ccccc1C(=O)OC[C@@H]1CC[C@H](C(=O)c2ccc(-c3ccc(Cl)cc3)cc2)[C@H]1C(=O)O (relative stereo) [Example 378] ; param system: MMP-9 (Homo sapiens, UniProt P14780); output pIC50: 7.08

Param item: O=C(CC(CSc1ccccc1)C(=O)O)c1ccc(-c2ccc(Cl)cc2)cc1 (stereo not shown) [Example 196] ; param system: MMP-9 (Homo sapiens, UniProt P14780); output pIC50: 6.02

Param item: COC(=O)c1ccccc1SC[C@@H]1CC[C@H](C(=O)c2ccc(-c3ccc(Cl)cc3)cc2)[C@H]1C(=O)O (relative stereo) [Example 376] ; param system: MMP-9 (Homo sapiens, UniProt P14780); output pIC50: 7.02

----------
Kindly state log10 IC50 for each of the entries shown.
- testedSystem: MMP-9 (Homo sapiens, UniProt P14780)
- Construct: from tissue; host or cells: human polymorphonuclear leukocytes (PMN) from whole blood (New York Blood Center), PMA-stimulated supernatant
- experimentNotes: Automated MMP Profiling Assay, MMP-9 fluorogenic
- Format: biochemical
- assaySetup: 96-well automated, P218
Units before log transform: nM; reported quantity: IC50; transform: log10.

For record COc1cccc(C(=O)OC[C@@H]2CC[C@H](C(=O)c3ccc(-c4ccc(Cl)cc4)cc3)[C@H]2C(=O)O)c1 (relative stereo) the listed log10 IC50 is 1.59

For record O=C(c1ccc(-c2ccc(Cl)cc2)cc1)C1CCC(Sc2ccccc2)C1C(=O)O (stereo not drawn) the listed log10 IC50 is 2.94

For record O=C(CC(CCc1ccc(I)cc1)C(=O)O)c1ccc(-c2ccc(Cl)cc2)cc1 (stereo not drawn) the listed log10 IC50 is 2.85

For record O=C(c1ccc(-c2ccc(Cl)cc2)cc1)[C@H]1CCN(C(=O)CCc2ccccc2)[C@@H]1C(=O)O the listed log10 IC50 is 3.03

For record O=C(CC(CCCc1ccccc1)C(=O)O)c1ccc(-c2ccc(OCC3CC3)cc2)cc1 (stereo not drawn) the listed log10 IC50 is 2.36

For record CCOc1ccc(-c2ccc(C(=O)CC(CCN3C(=O)CCC3=O)C(=O)O)cc2)cc1 (stereo not drawn) the listed log10 IC50 is 1.61

For record O=C(CC(CC[S+]([O-])c1ccccc1)C(=O)O)c1ccc(-c2ccc(Cl)cc2)cc1 (stereo not drawn) the listed log10 IC50 is 2.08

For record O=C(CC(CCCc1ccccc1)C(=O)O)c1ccc(-c2ccc(OCc3cccc(Cl)c3)cc2)cc1 (stereo not drawn) the listed log10 IC50 is 2.79

For record NC(=O)c1ccc(COc2ccc(-c3ccc(C(=O)CC(CCCc4ccccc4)C(=O)O)cc3)cc2)cc1 (stereo not drawn) the listed log10 IC50 is 2.95

For record CCCOc1ccc(-c2ccc(C(=O)CC(CCc3ccccc3)C(=O)O)cc2)cc1 (stereo not drawn) the listed log10 IC50 is 2.15

For record COc1cc(CCC(CC(=O)c2ccc(-c3ccc(Cl)cc3)cc2)C(=O)O)cc(OC)c1 (stereo not drawn) the listed log10 IC50 is 2.89

For record COC/C=C/c1ccc(-c2ccc(C(=O)CC(CCCc3ccccc3)C(=O)O)cc2)cc1 (stereo not drawn) the listed log10 IC50 is 2.44

For record O=C(OC[C@@H]1CC[C@H](C(=O)c2ccc(-c3ccc(Cl)cc3)cc2)[C@H]1C(=O)O)c1ccccc1 (relative stereo) the listed log10 IC50 is 1.58

For record COc1ccc(C(=O)OC[C@@H]2CC[C@H](C(=O)c3ccc(-c4ccc(Cl)cc4)cc3)[C@H]2C(=O)O)cc1 (relative stereo) the listed log10 IC50 is 1.72

For record O=C(CC(CCCc1ccccc1)C(=O)O)c1ccc(-c2ccc(OCc3cccnc3)cc2)cc1 (stereo not drawn) the listed log10 IC50 is 3.11

Reference source: patent US5789434A
